Just for reference, ChEMBL document CHEMBL4811262 is where these values come from.

Target: Tryptophan 2,3-dioxygenase (Rattus norvegicus, UniProt P21643)
Sequence (P21643 whole entry): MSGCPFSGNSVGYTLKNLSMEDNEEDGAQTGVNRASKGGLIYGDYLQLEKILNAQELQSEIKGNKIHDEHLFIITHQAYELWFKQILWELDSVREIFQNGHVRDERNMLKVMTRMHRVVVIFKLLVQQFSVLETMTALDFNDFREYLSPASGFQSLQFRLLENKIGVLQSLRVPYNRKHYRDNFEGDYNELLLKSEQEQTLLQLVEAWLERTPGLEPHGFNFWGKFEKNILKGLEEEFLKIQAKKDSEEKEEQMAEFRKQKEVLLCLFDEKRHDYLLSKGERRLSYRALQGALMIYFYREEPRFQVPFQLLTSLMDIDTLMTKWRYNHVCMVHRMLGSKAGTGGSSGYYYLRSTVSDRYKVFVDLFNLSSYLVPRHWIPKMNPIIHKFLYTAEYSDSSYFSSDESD
Experimental endpoint: pIC50
# pIC50 = -log10(concentration in molar units)

Please respond with reported pIC50 (system Tryptophan 2,3-dioxygenase (Rattus norvegicus, UniProt P21643)) for `Fc1ccc2c(/C=C/c3cccnc3)c[nH]c2c1` . 7.30

* * *

Measured IC50, listed per entry for reference.
Target: Tryptophan 2,3-dioxygenase (Homo sapiens, UniProt P48775)
Sequence (P48775 whole entry): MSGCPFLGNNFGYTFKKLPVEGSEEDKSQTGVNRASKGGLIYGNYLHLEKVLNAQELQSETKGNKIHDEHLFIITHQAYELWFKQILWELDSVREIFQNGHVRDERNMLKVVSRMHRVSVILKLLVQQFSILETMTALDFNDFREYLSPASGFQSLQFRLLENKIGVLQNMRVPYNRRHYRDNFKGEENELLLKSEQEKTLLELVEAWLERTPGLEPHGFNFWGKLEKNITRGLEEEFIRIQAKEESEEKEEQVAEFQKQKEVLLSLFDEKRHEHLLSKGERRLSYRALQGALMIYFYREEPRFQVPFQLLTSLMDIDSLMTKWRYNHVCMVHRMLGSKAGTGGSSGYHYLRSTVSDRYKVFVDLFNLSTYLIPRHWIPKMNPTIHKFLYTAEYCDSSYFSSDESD
Experiment: Inhibition of recombinant human TDO2 expressed in Escherichia coli BL21 (DE3) assessed as reduction in N-formylkynurenine formation using L-tryptophan as substrate incubated for 30 mins by methylene blue reagent based concurrent assay
Answer with a number only, understood to be in µM.

Example cases with answers are listed next.
structure_smiles=O=[N+]([O-])c1cc(F)c2cccnc2c1O target_under_test="Tryptophan 2,3-dioxygenase (Homo sapiens, UniProt P48775)" experimental_endpoint=IC50 number=30.2
structure_smiles=O=S(=O)(/N=C/c1c(O)ccc2ccccc12)c1cccs1 target_under_test="Tryptophan 2,3-dioxygenase (Homo sapiens, UniProt P48775)" experimental_endpoint=IC50 number=11.3

Continue with the molecule presented below.
Answer with reported IC50 of `O=C1c2ccccc2C2=C3C(O)=NN=C3CCN12` 4.35

* * *

The entries below are paired with their reported pIC50.
Target: Tryptophan 2,3-dioxygenase (Homo sapiens, UniProt P48775)
Experiment: Inhibition of recombinant human TDO2 expressed in Escherichia coli BL21 (DE3) assessed as reduction in N-formylkynurenine formation using L-tryptophan as substrate incubated for 30 mins by methylene blue reagent based assay
Units for pIC50: none; it is -log10 of a concentration expressed in mol/L.

structure_smiles=NS(=O)(=O)NCCNc1nonc1C(=NO)Nc1ccc(F)c(Br)c1 number=5.67

Attention now turns to another entry.
Quote pIC50 reported for `Nc1nonc1C(=NO)Nc1ccc(F)c(Cl)c1` please. 5.46

* * *

Molecular target: Tryptophan 2,3-dioxygenase (Homo sapiens, UniProt P48775)
Assay: Inhibition of recombinant human TDO2 expressed in Escherichia coli BL21 (DE3) assessed as reduction in N-formylkynurenine formation using L-tryptophan as substrate incubated for 30 mins by methylene blue reagent based concurrent assay
Experimental endpoint: pIC50
// pIC50: -log10(molar conc.)

compound=COCCn1c2nc(=O)n(-c3ccccc3)c(=O)c-2nc2ccccc21 number=4.47

Read the next record carefully.
Find pIC50 for CC1Oc2cc3c(-c4c(O)cc(O)c5c(O)c6c(cc45)OC(C)C(C)C6=O)c(O)cc(O)c3c(O)c2C(=O)C1C (centres undefined) on Tryptophan 2,3-dioxygenase (Homo sapiens, UniProt P48775) and write it down. 4.31

* * *

pIC50 values, listed per item
Molecular target: Indoleamine 2,3-dioxygenase 1 (Homo sapiens)
Sequence (P14902 whole entry): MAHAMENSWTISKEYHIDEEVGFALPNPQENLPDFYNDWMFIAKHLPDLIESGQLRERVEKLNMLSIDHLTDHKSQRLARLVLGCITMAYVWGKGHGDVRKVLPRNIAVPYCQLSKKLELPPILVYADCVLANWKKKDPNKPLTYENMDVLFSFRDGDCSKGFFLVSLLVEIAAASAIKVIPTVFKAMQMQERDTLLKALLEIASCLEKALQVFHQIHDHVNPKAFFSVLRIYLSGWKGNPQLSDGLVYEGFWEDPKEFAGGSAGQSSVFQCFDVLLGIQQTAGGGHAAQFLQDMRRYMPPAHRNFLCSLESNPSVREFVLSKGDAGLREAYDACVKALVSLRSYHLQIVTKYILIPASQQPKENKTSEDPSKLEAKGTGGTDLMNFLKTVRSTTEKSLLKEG
Assay: Inhibition of recombinant human IDO1 expressed in Escherichia coli EC538 assessed as reduction in N-formylkynurenine formation using L-tryptophan as substrate incubated for 30 mins by methylene blue reagent based concurrent assay
Formally, pIC50 is defined as -log10 of the concentration c, with c in mol/L.

Illustrative cases are given below, each with its answer.
compound=O=[N+]([O-])c1cc(F)c2cccnc2c1O number=4.84
compound="CC1Oc2cc3c(-c4c(O)cc(O)c5c(O)c6c(cc45)OC(C)C(C)C6=O)c(O)cc(O)c3c(O)c2C(=O)C1C (configuration not stated)" number=4.36
compound=CC1=C(O)C(=O)C=C2C1=CC=C1[C@@]2(C)CC[C@@]2(C)[C@@H]3C[C@](C)(C(=O)O)CC[C@]3(C)CC[C@]12C number=5.08
compound=COCCn1c2nc(=O)n(-c3ccccc3)c(=O)c-2nc2ccccc21 number=4.62
compound=Cc1cc(=O)n2c3c(c4c(cc13)c(CN(C)C)cc(=O)n4C)OC2 number=4.57
compound=O=S(=O)(/N=C/c1c(O)ccc2ccccc12)c1cccs1 number=5.86
compound=Oc1ccccc1-c1nc2c3ccccc3c3ccccc3c2[nH]1 number=4.93
compound=O=[N+]([O-])/C=C/c1cc2ccccc2[nH]1 number=5.55

Name the recorded pIC50 of `Fc1ccc2c(/C=C/c3cccnc3)c[nH]c2c1` , assay system Indoleamine 2,3-dioxygenase 1 (Homo sapiens). 3.32

Send back Indoleamine 2,3-dioxygenase 1 (Homo sapiens) pIC50 of `O=Cc1ccc(O)c2ncccc12` only. 5.36

Given `O=[N+]([O-])c1cc([N+](=O)[O-])c2cccnc2c1O` , report its pIC50 on Indoleamine 2,3-dioxygenase 1 (Homo sapiens). 4.95

State pIC50 (Indoleamine 2,3-dioxygenase 1 (Homo sapiens)) of `O=C1c2ccccc2C2=C3C(O)=NN=C3CCN12` . 5.76
